Would you kindly list IC50 for each of these compounds?
Target: MALT1 (Homo sapiens, UniProt Q9UDY8)
Sequence (Q9UDY8 1-824): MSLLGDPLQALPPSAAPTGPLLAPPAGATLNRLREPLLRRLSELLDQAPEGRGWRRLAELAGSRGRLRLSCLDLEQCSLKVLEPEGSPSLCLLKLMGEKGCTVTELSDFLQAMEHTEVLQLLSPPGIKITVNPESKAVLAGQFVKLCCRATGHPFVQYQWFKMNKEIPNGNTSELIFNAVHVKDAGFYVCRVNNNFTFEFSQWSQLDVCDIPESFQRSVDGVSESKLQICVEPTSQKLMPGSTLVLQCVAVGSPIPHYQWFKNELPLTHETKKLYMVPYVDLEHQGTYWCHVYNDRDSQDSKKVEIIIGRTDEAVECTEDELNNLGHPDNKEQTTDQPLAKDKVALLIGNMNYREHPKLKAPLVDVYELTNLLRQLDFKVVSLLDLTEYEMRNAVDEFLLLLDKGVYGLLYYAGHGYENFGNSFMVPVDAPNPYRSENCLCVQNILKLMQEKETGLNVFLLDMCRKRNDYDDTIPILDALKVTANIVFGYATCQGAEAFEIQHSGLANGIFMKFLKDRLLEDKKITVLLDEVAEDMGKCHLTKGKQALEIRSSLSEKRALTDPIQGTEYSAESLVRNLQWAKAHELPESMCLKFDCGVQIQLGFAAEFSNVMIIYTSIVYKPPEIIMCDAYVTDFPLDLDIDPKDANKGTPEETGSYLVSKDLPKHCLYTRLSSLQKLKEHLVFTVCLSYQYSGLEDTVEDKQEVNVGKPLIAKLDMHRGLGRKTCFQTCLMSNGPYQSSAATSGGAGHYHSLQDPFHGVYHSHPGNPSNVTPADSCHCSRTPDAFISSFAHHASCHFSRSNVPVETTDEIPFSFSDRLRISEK

INPUT: For the compound C#Cc1cnccc1-c1c(F)c(F)c(C(=O)Nc2cnc(-n3nccn3)c(Cl)c2)c(F)c1F , report IC50.
OUTPUT: ≤ 10 nM

INPUT: For the compound Nc1cc(F)ccc1-c1cc(Cl)c(C(=O)Nc2cnc(C(=O)NCCF)c(Cl)c2)cc1F , report IC50.
OUTPUT: 10 to 100 nM

INPUT: For the compound Nc1ccccc1-c1cc(F)c(C(=O)Nc2cnc(-n3nccn3)c(Cl)c2)cc1Cl , report IC50.
OUTPUT: ≤ 10 nM

INPUT: For the compound C#Cc1cnccc1-c1cc(Cl)c(C(=O)Nc2cnc(C(=O)NC)c(Cl)c2)cc1F , report IC50.
OUTPUT: ≤ 10 nM

INPUT: For the compound C=Cc1cc(C(=O)Nc2cnc(-n3nccn3)c(Cl)c2)c(C)cc1-c1ccc(F)cc1N , report IC50.
OUTPUT: 10 to 100 nM

***
INPUT: For the compound O=C(Nc1cnc(-n2nccn2)c(Cl)c1)c1cc(F)c(-c2ccc(F)cc2CO)cc1Cl , report IC50.
OUTPUT: ≤ 10 nM

====

Biological target: MALT1 (Homo sapiens)
Sequence (Q9UDY8 1-824): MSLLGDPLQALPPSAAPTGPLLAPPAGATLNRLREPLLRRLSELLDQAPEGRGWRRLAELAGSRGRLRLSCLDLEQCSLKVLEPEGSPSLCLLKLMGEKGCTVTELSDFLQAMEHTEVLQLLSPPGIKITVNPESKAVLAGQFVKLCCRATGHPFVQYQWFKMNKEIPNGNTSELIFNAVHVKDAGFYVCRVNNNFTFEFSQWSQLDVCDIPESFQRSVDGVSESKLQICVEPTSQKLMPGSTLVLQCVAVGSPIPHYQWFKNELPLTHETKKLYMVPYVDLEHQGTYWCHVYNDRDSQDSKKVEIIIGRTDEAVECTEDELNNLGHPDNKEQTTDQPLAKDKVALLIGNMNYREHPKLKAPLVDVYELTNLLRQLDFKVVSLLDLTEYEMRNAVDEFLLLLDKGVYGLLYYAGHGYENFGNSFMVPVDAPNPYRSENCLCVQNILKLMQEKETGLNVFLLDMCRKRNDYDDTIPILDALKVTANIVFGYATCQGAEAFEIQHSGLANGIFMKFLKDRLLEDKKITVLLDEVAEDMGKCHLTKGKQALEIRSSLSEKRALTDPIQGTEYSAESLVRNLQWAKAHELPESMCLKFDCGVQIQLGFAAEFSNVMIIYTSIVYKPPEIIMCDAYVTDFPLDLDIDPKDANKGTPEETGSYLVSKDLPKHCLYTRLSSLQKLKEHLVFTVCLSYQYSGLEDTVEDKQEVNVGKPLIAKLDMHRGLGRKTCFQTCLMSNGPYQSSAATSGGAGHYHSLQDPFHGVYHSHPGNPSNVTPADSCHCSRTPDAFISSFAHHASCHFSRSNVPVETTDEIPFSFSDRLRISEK
Would you kindly list IC50 for each of these compounds?

INPUT: Provide measured IC50 on MALT1 (Homo sapiens) for C#Cc1cnccc1-c1cc(Cl)c(C(=O)Nc2cnc(C(=O)NCC(C)(C)C)c(Cl)c2)cc1F please.
OUTPUT: 10 to 100 nM

For every record below, what is its IC50?
1. C#Cc1cnccc1-c1cc(Cl)c(C(=O)Nc2cnc(C(=O)NCCc3ccccc3)c(Cl)c2)cc1F
2. C#Cc1cc(C(=O)Nc2cnc(-n3nccn3)c(Cl)c2)c(C)cc1-c1ccc(F)cc1Cl
3. C#Cc1cnc(C)c(N)c1-c1cc(Cl)c(C(=O)Nc2cnc(-n3nccn3)c(C(F)(F)F)c2)cc1F
4. C=Cc1cncc(N)c1-c1cc(Cl)c(C(=O)Nc2cnc(-n3nccn3)c(Cl)c2)cc1F
5. Nc1cc(F)ccc1-c1cc(Cl)c(C(=O)Nc2cnc(-n3nccn3)c(Cl)c2)cc1F
6. COCCNC(=O)c1ncc(NC(=O)c2cc(F)c(-c3ccc(F)cc3N)cc2Cl)cc1Cl

OUTPUT:
1: 10 to 100 nM; 2: 10 to 100 nM; 3: ≤ 10 nM; 4: ≤ 10 nM; 5: ≤ 10 nM; 6: 10 to 100 nM

INPUT: Provide measured IC50 on MALT1 (Homo sapiens) for C#Cc1cc(C(=O)Nc2cnc(-n3nccn3)c(Cl)c2)c(C)cc1-c1ccc(F)cc1N please.
OUTPUT: ≤ 10 nM

====

pIC50: −log10 of the molar value.
What follows is a collection of pIC50 values obtained with MALT1 (Homo sapiens, UniProt Q9UDY8).

INPUT: For the compound C#Cc1cnccc1-c1cc(Cl)c(C(=O)Nc2ccc(OC)c(Cl)c2)cc1F [Example A338] , report pIC50.
OUTPUT: ≥ 8.00

INPUT: For the compound C#Cc1cncc(N)c1-c1cc(Cl)c(C(=O)Nc2ccnc(C(F)(F)F)c2)cc1F [Example A518] , report pIC50.
OUTPUT: ≥ 8.00

INPUT: For the compound Nc1cc(F)ccc1-c1cc(Cl)c(C(=O)Nc2cnc(C(=O)NCC3(C(F)(F)F)CC3)c(Cl)c2)cc1F [Example A468] , report pIC50.
OUTPUT: 6.30 to 7.00

INPUT: For the compound C#Cc1cnccc1-c1cc(Cl)c(C(=O)Nc2cnc(C(=O)NCC#N)c(Cl)c2)cc1F [Example A427] , report pIC50.
OUTPUT: ≥ 8.00

INPUT: For the compound CC(C)(C)CNC(=O)c1ncc(NC(=O)c2cc(F)c(-c3ccc(F)cc3N)cc2Cl)cc1Cl [Example A446] , report pIC50.
OUTPUT: ≥ 8.00

INPUT: For the compound C#Cc1cncc(N)c1-c1cc(Cl)c(C(=O)Nc2cnc(C(=O)NCCF)c(Cl)c2)cc1F [Example A472] , report pIC50.
OUTPUT: ≥ 8.00

INPUT: For the compound C#Cc1cc(F)cnc1-c1cc(Cl)c(C(=O)Nc2ccnc(C(F)(F)F)c2)cc1F [Example A324] , report pIC50.
OUTPUT: ≥ 8.00

INPUT: For the compound CNc1cc(F)ccc1-c1cc(F)c(C(=O)Nc2cnc(-n3nccn3)c(Cl)c2)cc1Cl [Example A127] , report pIC50.
OUTPUT: ≥ 8.00

For every record below, what is its pIC50?
1. CC(C#N)NC(=O)c1ncc(NC(=O)c2cc(F)c(-c3ccc(F)cc3N)cc2Cl)cc1Cl (stereo not shown) [Example A450]
2. Cc1cc(-c2ccc(F)cc2Br)c(F)cc1C(=O)Nc1cnc(-n2nccn2)c(Cl)c1 [Example A114]
3. N#CC1(CNC(=O)c2ncc(NC(=O)c3cc(F)c(-c4ccc(F)cc4N)cc3Cl)cc2Cl)CC1 [Example A466]
4. Nc1cc(F)ccc1-c1cc(Cl)c(C(=O)Nc2cnc(-n3nccn3)c(C(F)(F)F)c2)cc1F [Example A122]
5. C#Cc1cnc(Cl)c(N)c1-c1cc(Cl)c(C(=O)Nc2cnc(-n3nccn3)c(C(F)(F)F)c2)cc1F [Example A553]
6. Cc1cc(-c2ccc(F)cc2F)c(F)cc1C(=O)Nc1cnc(-n2nccn2)c(Cl)c1 [Example A116]

OUTPUT:
1. 7.00 to 8.00
2. ≥ 8.00
3. 7.00 to 8.00
4. ≥ 8.00
5. ≥ 8.00
6. ≥ 8.00

For every record below, what is its pIC50?
1. C#Cc1cc(C(=O)Nc2cnc(-n3nccn3)c(Cl)c2)c(C)cc1-c1ccncc1OC [Example A417]
2. Cc1cc(F)cc(N)c1-c1cc(Cl)c(C(=O)Nc2cnc(C(=O)NCC#N)c(Cl)c2)cc1F [Example A442]

OUTPUT:
1. 7.00 to 8.00
2. 7.00 to 8.00
